target: Helios (Homo sapiens, UniProt Q96SW2+Q9UKS7); test: Helios Human T Regulatory Cells Degradation Assay; assay type: cell-based; set-up: fluorescently labelled antibodies against Helios in 1× Permeabilization buffer; endogenous in cells; host or cells: cryopreserved human T regulatory cells; details: cryopreserved human T regulatory cells, incubated 20 hours, Helios-APC antibody staining, flow cytometry; read-out: hTreg Helios DC50
Sequence (Q9UKS7 whole entry): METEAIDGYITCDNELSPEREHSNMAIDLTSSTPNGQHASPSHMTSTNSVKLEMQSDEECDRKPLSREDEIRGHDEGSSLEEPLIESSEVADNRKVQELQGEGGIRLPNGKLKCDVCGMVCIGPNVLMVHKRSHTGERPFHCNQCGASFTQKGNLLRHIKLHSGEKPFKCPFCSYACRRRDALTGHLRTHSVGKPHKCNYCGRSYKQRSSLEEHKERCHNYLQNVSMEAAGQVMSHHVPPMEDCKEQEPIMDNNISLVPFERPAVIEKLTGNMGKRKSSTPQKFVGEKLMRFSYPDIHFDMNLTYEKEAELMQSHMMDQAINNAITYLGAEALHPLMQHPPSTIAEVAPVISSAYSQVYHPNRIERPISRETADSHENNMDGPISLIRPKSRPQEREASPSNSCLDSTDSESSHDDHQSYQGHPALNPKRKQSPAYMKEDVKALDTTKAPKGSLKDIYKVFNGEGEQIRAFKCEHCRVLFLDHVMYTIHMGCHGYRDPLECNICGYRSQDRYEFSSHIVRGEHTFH
Sequence (Q96SW2 whole entry): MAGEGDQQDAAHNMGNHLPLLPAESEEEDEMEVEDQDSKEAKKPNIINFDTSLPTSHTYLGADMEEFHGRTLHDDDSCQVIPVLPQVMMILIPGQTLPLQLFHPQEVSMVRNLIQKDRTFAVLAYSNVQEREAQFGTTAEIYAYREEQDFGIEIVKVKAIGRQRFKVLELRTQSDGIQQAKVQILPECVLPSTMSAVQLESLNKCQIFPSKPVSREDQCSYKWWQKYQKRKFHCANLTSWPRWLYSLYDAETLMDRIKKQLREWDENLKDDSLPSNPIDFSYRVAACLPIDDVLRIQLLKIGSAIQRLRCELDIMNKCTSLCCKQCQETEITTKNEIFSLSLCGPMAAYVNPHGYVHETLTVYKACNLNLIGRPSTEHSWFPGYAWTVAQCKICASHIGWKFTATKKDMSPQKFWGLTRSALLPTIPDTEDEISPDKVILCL
Sequence (Q16531 whole entry partner): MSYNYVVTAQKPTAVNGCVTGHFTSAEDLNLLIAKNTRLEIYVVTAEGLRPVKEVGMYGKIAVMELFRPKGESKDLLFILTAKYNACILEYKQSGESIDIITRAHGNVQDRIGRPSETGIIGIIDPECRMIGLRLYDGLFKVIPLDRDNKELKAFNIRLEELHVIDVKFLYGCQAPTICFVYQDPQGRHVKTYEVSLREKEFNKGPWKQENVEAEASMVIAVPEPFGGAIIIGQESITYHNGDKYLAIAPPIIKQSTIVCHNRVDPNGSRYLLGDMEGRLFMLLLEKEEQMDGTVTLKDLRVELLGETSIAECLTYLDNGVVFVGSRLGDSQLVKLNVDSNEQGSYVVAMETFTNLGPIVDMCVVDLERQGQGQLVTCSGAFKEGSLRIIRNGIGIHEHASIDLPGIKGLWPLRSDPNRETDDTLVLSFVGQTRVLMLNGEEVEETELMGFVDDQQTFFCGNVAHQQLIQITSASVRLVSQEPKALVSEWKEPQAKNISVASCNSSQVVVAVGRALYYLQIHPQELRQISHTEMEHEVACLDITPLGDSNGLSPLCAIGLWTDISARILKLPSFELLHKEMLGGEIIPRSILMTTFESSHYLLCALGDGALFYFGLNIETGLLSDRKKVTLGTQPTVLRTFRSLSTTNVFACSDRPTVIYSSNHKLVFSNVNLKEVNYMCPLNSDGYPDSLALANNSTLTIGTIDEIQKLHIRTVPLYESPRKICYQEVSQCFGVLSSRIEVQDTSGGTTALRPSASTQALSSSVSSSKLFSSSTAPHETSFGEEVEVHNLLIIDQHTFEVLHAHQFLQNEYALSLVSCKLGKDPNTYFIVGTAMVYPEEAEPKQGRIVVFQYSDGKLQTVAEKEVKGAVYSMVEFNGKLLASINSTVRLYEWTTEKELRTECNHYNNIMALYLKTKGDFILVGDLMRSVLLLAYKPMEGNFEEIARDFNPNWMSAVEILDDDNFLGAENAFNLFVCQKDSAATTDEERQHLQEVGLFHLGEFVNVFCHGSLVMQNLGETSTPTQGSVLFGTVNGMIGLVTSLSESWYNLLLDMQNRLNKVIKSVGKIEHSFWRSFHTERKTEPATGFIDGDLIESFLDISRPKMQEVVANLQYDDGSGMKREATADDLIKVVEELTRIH
MEASUREMENT_KIND: DC50 (nM)
Express your answer in nM, writing the number without its unit.

Use the examples below as a reference point.
• COCC1CCCN(Cc2ccnc(-c3ccc4c(c3)CN(C3CCC(=O)NC3=O)C4=O)c2)C1 (stereo not shown) = 2
• COc1cc(CN2CC3(CCC3)C2)cc(-c2ccc3c(c2)CN(C2CCC(=O)NC2=O)C3=O)n1 (stereo not shown) = 1.5
• CC1(C)C2CN(Cc3ccnc(-c4ccc5c(c4)CN(C4CCC(=O)NC4=O)C5=O)c3F)CC21 (stereo not shown) = 11.1

// query Form field: reported DC50 of O=C1CCC(N2Cc3cc(-c4nccc(CN5CCC(O)CC5)c4F)ccc3C2=O)C(=O)N1 (stereo not shown)
// result 51.5
